System: SK-MEL-2 melanoma
test details: NCI-60 one-dose screen, 48 h (100 = growth as untreated, 0 = no growth, -100 = all killed)
measurement parameters: 10 µM unless noted
Protocol: Growth inhibition of the SK-MEL-2 human tumor cell line is measured as a screen for anti-cancer activity. Cells are grown in 96 well plates and exposed to the test compound for 48 hours. Compounds are tested at a single concentration, which is 10^-5 M for most compounds. The reported endpoint is percent growth (GI% or GIPRCNT), where numbers from 0 - 100% represent growth inhibition, and numbers from -100% - 0 represent cell death. For example, a value of 40 represents 60% growth inhibition. […]
About 83,000 compounds went through this panel and 20% of them were active in at least one assay; those are over-represented in the sample as a whole.

{"columns": ["molecule", "assay system", "units of measure", "growth"],
 "data": [
  ["CC1=C(CN)C2=C(C)C3(CC3)[C@@](C)(O)C(=O)C2=C1", "SK-MEL-2 melanoma", "%", 98.5],
  ["COc1cc(NCCCN=C(N)N)c2ncccc2c1", "SK-MEL-2 melanoma", "%", 27.8],
  ["O=[N+]([O-])CC(c1ccccc1Cl)c1c(-c2ccccc2)[nH]c2ccccc12 (stereo unspecified)", "SK-MEL-2 melanoma", "%", 27.2],
  ["COC(=O)[C@@H](C)C[C@H](Cc1ccccc1)NC(=O)c1csc([C@@H](C[C@H](C(C)C)N(C)C(=O)[C@@H](NC(=O)[C@H]2CCCCN2C)C2CCCCC2)OC(C)=O)n1", "SK-MEL-2 melanoma", "%", 11.2],
  ["C[C@]12CCc3sc(-c4cccc(F)c4)nc3C1=CC[C@@H]1[C@@H]2CC[C@]2(C)C(=O)CC[C@@H]12", "SK-MEL-2 melanoma", "%", 32.1],
  ["CCCCCCCCCCCCCCCCCC1OC[C@H](COC(=O)O[C@@H](C(=O)O[C@H]2C[C@@]3(O)[C@@H](OC(=O)c4ccccc4)[C@@H]4[C@]5(OC(C)=O)CO[C@@H]5C[C@H](O)[C@@]4(C)C(=O)[C@H](OC(C)=O)C(=C2C)C3(C)C)[C@@H](NC(=O)c2ccccc2)c2ccccc2)O1 (stereo partly specified)", "SK-MEL-2 melanoma", "%", 75],
  ["CC12CCC3C(CCC4=CC(=O)CCC43CF)C1CCC2=O (stereo unspecified)", "SK-MEL-2 melanoma", "%", 97.2],
  ["CC[C@H](C)[C@H](NC(=O)C12C3C4C1C1C2C3C41NC(C)=O)C(=O)N(C)[C@H](C[C@@H](OC(C)=O)c1nc(C(=O)N[C@@H](Cc2ccccc2)C[C@H](C)C(=O)OC)cs1)C(C)C (stereo partly specified)", "SK-MEL-2 melanoma", "%", 49.2],
  ["O=C1NC(=O)C(=Cc2cn(C(=O)c3ccccc3)c3ccccc23)C(=O)N1", "SK-MEL-2 melanoma", "%", 96.5],
  ["CC(C)CCC(=O)O[C@H]1CC[C@H]2[C@@H]3CCC4=CC(=O)CC[C@]4(C)[C@H]3CC[C@]12C", "SK-MEL-2 melanoma", "%", 115],
  ["COC(=O)C1OC(Oc2ccc(N(CCCl)CCCl)cc2)C(OC(C)=O)C(OC(C)=O)C1OC(C)=O (stereo unspecified)", "SK-MEL-2 melanoma", "%", 109],
  ["COc1ccc(N(CC(=O)NCCC[Te]c2ccccc2)C(=O)CNC(=O)OC(C)(C)C)cc1", "SK-MEL-2 melanoma", "%", 80],
  ["C1CCC([PH+](C2CCCCC2)C2CCCCC2[PH+](C2CCCCC2)C2CCCCC2)CC1.O=C(C1[CH-]CCCC1)C1CCCC[N-]1.[Au] (stereo unspecified)", "SK-MEL-2 melanoma", "%", -52.6],
  ["ClCCN(CCCl)c1ccc(-n2cnc3c(Cl)ncnc32)cc1", "SK-MEL-2 melanoma", "%", 69],
  ["Cc1cc(C)c(CBr)c(C)c1", "SK-MEL-2 melanoma", "%", 102],
  ["N/C(=N/N=C/c1ccncc1)N[N+](=O)[O-]", "SK-MEL-2 melanoma", "%", 104]
]}

----------
Tested on: OVCAR-8 ovarian
test details: NCI-60 one-dose screen, 48 h
measurement parameters: 10 µM unless noted
The panel holds about 83,000 compounds, 20% with a hit somewhere; the sample as a whole holds those more often. Activity calls are given as the source filed them. Rule for the calls: active = growth percent below 10; inactive = the rest.
Outcome codes: YES for active, NO for inactive

{"columns": ["compound", "label"],
 "data": [
  ["CCOP1(=O)CC(C)=C(Cl)C(P(=O)(OCC)OCC)C1 (stereo not drawn)", "NO"],
  ["CCOC(=O)[C@@H](C)C[C@H](Cc1ccccc1)NC(=O)c1csc([C@@H](C[C@H](C(C)C)N(C)C(=O)CNC(=O)[C@H]2CCCCN2C)OC(C)=O)n1", "YES"],
  ["Clc1cccc(Cl)c1Cl", "NO"],
  ["CC1(C)[C@H](O)[C@H](F)C[C@@]2(C)Oc3ccc(C(=O)Nc4ccc5c(c4)NC(=O)C54CCN(CCCCC#N)CC4)cc3C[C@H]12", "NO"],
  ["O=P(N1CC1)(N1CC1)N1CCc2ccccc21", "NO"],
  ["CC(=O)O[C@H]1C(=O)[C@@]2(C)[C@H]([C@H](OC(=O)c3ccccc3)[C@]3(O)C[C@H](OC(=O)[C@H](OC(=O)OCC4COC(C)(C)O4)[C@@H](NC(=O)c4ccccc4)c4ccccc4)C(C)=C1C3(C)C)[C@]1(OC(C)=O)CO[C@@H]1C[C@@H]2O (stereo partly drawn)", "NO"],
  ["CCCCCCCCOC(=O)CCN1CC1", "NO"],
  ["ClC1=C(Cl)C(Cl)(C2(Cl)C(Cl)=C(Cl)C(Cl)=C2Cl)C(Cl)=C1Cl", "YES"]
]}

----------
In this section we review reported growth values for a set of compounds.
Tested on: SK-OV-3 ovarian
test details: NCI-60 one-dose screen, 48 h (100 = growth as untreated, 0 = no growth, -100 = all killed)
measurement parameters: 10 µM unless noted
Compounds without any hit were thinned out: in the full panel of roughly 83,000, 20% have a hit. The source made the active and inactive calls. The calls were made as follows: active = growth percent below 10; inactive = the rest.

{"columns": ["compound", "growth"],
 "data": [
  ["CC(=O)OC1C(OC/C2=C/C3[C@@H](C(C)C)CC=C(C)[C@@H]3CC(OC(=O)/C=C/c3cn(C)cn3)[C@]3(C)C=C[C@@]2(O)O3)OCC(O)C1O (stereo not given in full)", "11.9% (inactive)"],
  ["C/C(=C\\c1ccn(-c2ccccc2N)n1)[C@@H]1C[C@@H]2O[C@]2(C)CCC[C@H](C)[C@H](O)[C@@H](C)C(=O)C(C)(C)[C@@H](O)CC(=O)O1", "40.2% (inactive)"],
  ["CC[S][Hg][Cl]", "110% (inactive)"],
  ["Oc1ccc2c3c1OC1[C@@H](O)CC[C@@]4(O)[C@@H](C2)N(CC2CCC2)CC[C@]314 (stereo not given in full)", "109% (inactive)"],
  ["CCCc1cc(O)c2c3c(c(=O)oc2c1)CN(C)CC3", "26.8% (inactive)"],
  ["COC(=O)N[C@H]1CCc2c(Br)c(OC)c(OC)c(OC)c2-c2ccc(SC)c(=O)cc21", "33.1% (inactive)"],
  ["CCN1C(=O)C(=C/C=C/c2ccccc2)C(=O)N(CC)C1=O", "103% (inactive)"],
  ["[Cl][Hg][c]1cc[c]([Hg][Cl])o1", "94.9% (inactive)"],
  ["CC(C)(N)Cc1ccccc1", "106% (inactive)"],
  ["O=C(Nc1ccc(O)cc1)C(Cl)(Cl)Cl", "98.2% (inactive)"]
]}

----------
System: HOP-62 NSCLC
test details: NCI-60 one-dose screen, 48 h (100 = growth as untreated, 0 = no growth, -100 = all killed)
measurement parameters: 10 µM unless noted
Compounds without any hit were thinned out: in the full panel of roughly 83,000, 20% have a hit.
In this section we review reported growth values for a set of compounds.

{"columns": ["compound", "growth (%)"],
 "data": [
  ["CC(=O)O[C@H](C[C@H](C(C)C)N(C)C(=O)[C@@H](NC(=O)[C@H]1CCCN1C)C(C)C)c1nc(C(=O)N[C@@H](Cc2ccccc2)C[C@H](C)C(=O)O)c(C)s1", 29.7],
  ["CNC(=O)Oc1ccc(N(C)C)cc1C(C)C", 99.5],
  ["O=C(CCCC1CCCCC1)OCC(Cl)(Cl)Cl", 98.7],
  ["CC[C@H](C)[C@H](NC(=O)C12C3C4C1C1C2C3C41NC(C)=O)C(=O)N(C)[C@H](C[C@@H](OC(C)=O)c1nc(C(=O)N[C@@H](Cc2ccccc2)C[C@H](C)C(=O)OC)cs1)C(C)C (stereo not given in full)", 22.4],
  ["C[C@@]12CC=C3c4nc(Nc5cccc(O)c5)sc4CC[C@]3(C)[C@H]1CC[C@]1(C)C(=O)CC[C@@H]21", 27.5],
  ["Fc1ccc2c(c1)c(-c1nc(-c3c[nH]c4ncccc34)cs1)cn2CCCCN1CCCCC1", -89.5],
  ["Cc1cnc(/C=C/C(=O)O)cc1-c1cc2c(cc1C)C(C)(C)CCC2(C)C", 94.4],
  ["CCCCCCCCOC(=O)CCN1CC1", 124],
  ["COC(=O)[C@@H](C)C[C@H](Cc1ccccc1)NC(=O)c1csc([C@@H](C[C@H](C(C)C)N(C)C(=O)[C@@H](NC(=O)[C@H]2CCCCN2C)C(C(F)(F)F)C(F)(F)F)OC(C)=O)n1", 15.1],
  ["CN1C(=O)N[C@H]2[C@@H]3NC(=O)c4ccc(Br)n4[C@@H]3C[C@]21O", -31.8],
  ["CC[C@H](C)[C@@H]1OC(=O)C(C)(C)[C@H](O)[C@H](Cc2ccccc2)OC(=O)[C@H](C(C)C)OC(=O)[C@@H](NC(=O)c2cccc(NC=O)c2O)[C@@H](C)OC1=O", 45],
  ["ClC1=C(Cl)C(Cl)(C2(Cl)C(Cl)=C(Cl)C(Cl)=C2Cl)C(Cl)=C1Cl", 60.4],
  ["[Au+].[N-]=C=O.c1ccc(CN2[CH-]N(Cc3ccccc3)C(c3ccccc3)=C2c2ccccc2)cc1", 116],
  ["CC[C@H](C)[C@H](NC(=O)c1ccccn1)C(=O)N(C)[C@H](C[C@@H](OC(C)=O)c1nc(C(=O)N[C@@H](Cc2ccccc2)C[C@H](C)C(=O)OC)cs1)C(C)C", 26.9],
  ["CC(C)[C@@H]1NC(=O)[C@]2(C)CSC(=N2)c2csc(n2)CNC(=O)C[C@@H](/C=C/CCS)OC1=O", -1.73]
]}

These measurements were taken from PubChem BioAssay (NCI).
